assayedTarget: GSK3β (Homo sapiens, UniProt P49841)
Sequence (P49841 whole entry): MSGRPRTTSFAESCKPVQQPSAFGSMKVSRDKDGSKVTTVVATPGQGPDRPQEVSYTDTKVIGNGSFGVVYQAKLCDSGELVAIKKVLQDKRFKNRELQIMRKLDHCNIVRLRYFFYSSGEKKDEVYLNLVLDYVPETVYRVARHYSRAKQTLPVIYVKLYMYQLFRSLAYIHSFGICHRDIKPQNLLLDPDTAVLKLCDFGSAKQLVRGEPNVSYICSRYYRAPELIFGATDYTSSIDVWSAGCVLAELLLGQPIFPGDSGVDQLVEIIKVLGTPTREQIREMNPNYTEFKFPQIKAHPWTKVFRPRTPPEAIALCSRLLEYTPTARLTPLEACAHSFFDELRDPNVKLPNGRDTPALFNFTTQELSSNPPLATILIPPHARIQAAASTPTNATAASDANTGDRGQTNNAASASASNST
pIC50: −log10 of the molar value.
experimentalReadout: pIC50

COc1cc(O)c2c(c1)oc(=O)c1c3cc(O)c(O)cc3oc21 [wedelolactone]	4.66
